Values from paper PMC4538536

# procedure.details: In vivo pharmacokinetics in infected mice (plasma, LC-MS/MS)
# Parameters: species or system BALB/c mice
# run.conditions: BALB/c, mouse, plasma, po, 150 mg/kg, Group 3 quartet BTZ043 37.5/SQ109 25/MXF 200/PZA 150 mg/kg oral; steady state, infected mice; read-out: AUC0-24 in Quartet
AUC(0-t) listing for selected compounds.
// note: answer is a bare numeric in ng·h/mL

- compound: "NC(=O)c1cnccn1 [Pyrazinamide]"
  unit.tag: "ng·h/mL"
  AUC(0-t): 156000
- compound: "CC(C)=CCC/C(C)=C/CNCCNC1C2CC3CC(C2)CC1C3 (stereo not drawn)"
  unit.tag: "ng·h/mL"
  AUC(0-t): 1800

Ask: // fetch AUC(0-t) given entry COc1c(N2C[C@@H]3CCCN[C@@H]3C2)c(F)cc2c(=O)c(C(=O)O)cn(C3CC3)c12
Reply: 13300

====

# procedure.details: In vivo pharmacokinetics in infected mice (plasma, LC-MS/MS)
# Set-up: species or system BALB/c mice
# run.conditions: BALB/c, mouse, plasma, po, 50 mg/kg, Group 2 triplet SQ109 25/BDQ 25/PA824 50 mg/kg oral; steady state, infected mice; read-out: AUC0-24 in Triplet
# Protocol: The drugs were formulated in 0.5% hydroxypropyl methyl cellulose (HPMC)–0.1% Tween 80 suspensions as 3- or 4-drug combinations. Formulations were prepared by weighing and adding each compound to the bottle, according to the design. Formulation vehicle was added, and the suspension was stirred overnight. Only uniform suspensions were used, while those that precipitated were abandoned. Formulations were prepared every week, and compound stability was estimated at the end of the week. […]
readout.kind: AUC(0-t) (ng·h/mL)
// note: answer is a bare numeric in ng·h/mL

The examples below pair each entry with its known result.
- molecule: "O=[N+]([O-])c1cn2c(n1)OC[C@@H](OCc1ccc(OC(F)(F)F)cc1)C2 [PA824]"
  readout.kind: "AUC(0-t)"
  observed.measurement: 86200
- molecule: "COc1nc2ccc(Br)cc2cc1[C@@H](c1ccccc1)[C@@](O)(CCN(C)C)c1cccc2ccccc12 [Bedaquiline]"
  readout.kind: "AUC(0-t)"
  observed.measurement: 34900

Would you kindly look at the next entry?
Ask: // fetch AUC(0-t) given entry CC(C)=CCC/C(C)=C/CNCCNC1C2CC3CC(C2)CC1C3 (stereo not drawn) [SQ109]
Reply: 8900

====

# procedure.details: In vivo pharmacokinetics in infected mice (plasma, LC-MS/MS)
# Design: species or system BALB/c mice
# run.conditions: BALB/c, mouse, plasma, po, 100 mg/kg, Ref. regimen triplet INH 30/RIF 10/EMB 100 mg/kg oral; steady state, infected mice; read-out: AUC0-24 in Triplet
AUC(0-t) listing for selected compounds.

The examples below pair each entry with its known result.
- smiles.str: "CO[C@H]1/C=C/O[C@@]2(C)Oc3c(C)c(O)c4c(O)c(c(/C=N/N5CCN(C)CC5)c(O)c4c3C2=O)NC(=O)/C(C)=C\\C=C\\[C@H](C)[C@H](O)[C@@H](C)[C@@H](O)[C@@H](C)[C@H](OC(C)=O)[C@@H]1C"
  observed.measurement: "25400 ng·h/mL"
- smiles.str: "CC[C@@H](CO)NCCN[C@@H](CC)CO"
  observed.measurement: "7900 ng·h/mL"

Would you kindly look at the next entry?
Ask: // fetch AUC(0-t) given entry NNC(=O)c1ccncc1
Reply: 19800 ng·h/mL

====

# procedure.details: In vivo pharmacokinetics in infected mice (plasma, LC-MS/MS)
# Design: species or system BALB/c mice
# run.conditions: BALB/c, mouse, plasma, po, 150 mg/kg, Group 2 quartet SQ109 25/BDQ 25/PA824 50/PZA 150 mg/kg oral; steady state, infected mice; read-out: AUC0-24 in Quartet
readout.kind: AUC(0-t) (ng·h/mL)
// note: answer is a bare numeric in ng·h/mL

The examples below pair each entry with its known result.
- molecule: "NC(=O)c1cnccn1 [Pyrazinamide]"
  unit.tag: "ng·h/mL"
  AUC(0-t): 148000
- molecule: "O=[N+]([O-])c1cn2c(n1)OC[C@@H](OCc1ccc(OC(F)(F)F)cc1)C2"
  unit.tag: "ng·h/mL"
  AUC(0-t): 60700
- molecule: "COc1nc2ccc(Br)cc2cc1[C@@H](c1ccccc1)[C@@](O)(CCN(C)C)c1cccc2ccccc12"
  unit.tag: "ng·h/mL"
  AUC(0-t): 31400

Ask: // fetch AUC(0-t) given entry CC(C)=CCC/C(C)=C/CNCCNC1C2CC3CC(C2)CC1C3 (stereo not shown)
Reply: 5100

====

# procedure.details: In vivo pharmacokinetics in infected mice (plasma, LC-MS/MS)
# Set-up: species or system BALB/c mice
# run.conditions: BALB/c, mouse, plasma, po, 150 mg/kg, Ref. regimen quartet INH 30/RIF 10/EMB 100/PZA 150 mg/kg oral; steady state, infected mice; read-out: AUC0-24 in Quartet
# Protocol: The drugs were formulated in 0.5% hydroxypropyl methyl cellulose (HPMC)–0.1% Tween 80 suspensions as 3- or 4-drug combinations. Formulations were prepared by weighing and adding each compound to the bottle, according to the design. Formulation vehicle was added, and the suspension was stirred overnight. Only uniform suspensions were used, while those that precipitated were abandoned. Formulations were prepared every week, and compound stability was estimated at the end of the week. […]
readout.kind: AUC(0-t) (ng·h/mL)
// note: answer is a bare numeric in ng·h/mL

The examples below pair each entry with its known result.
- molecule: "CC[C@@H](CO)NCCN[C@@H](CC)CO"
  AUC(0-t) / ng·h/mL: 6600
- molecule: "NC(=O)c1cnccn1 [Pyrazinamide]"
  AUC(0-t) / ng·h/mL: 161000
- molecule: "CO[C@H]1/C=C/O[C@@]2(C)Oc3c(C)c(O)c4c(O)c(c(/C=N/N5CCN(C)CC5)c(O)c4c3C2=O)NC(=O)/C(C)=C\\C=C\\[C@H](C)[C@H](O)[C@@H](C)[C@@H](O)[C@@H](C)[C@H](OC(C)=O)[C@@H]1C"
  AUC(0-t) / ng·h/mL: 22200

Would you kindly look at the next entry?
Ask: // fetch AUC(0-t) given entry NNC(=O)c1ccncc1
Reply: 12000

====

Cmax listing for selected compounds.
# procedure.details: In vivo pharmacokinetics in infected mice (plasma, LC-MS/MS)
# Parameters: species or system BALB/c mice
# run.conditions: BALB/c, mouse, plasma, po, 25 mg/kg, Group 6 triplet BTZ043 37.5/THI 800/SQ109 25 mg/kg oral; steady state, infected mice; read-out: Cmax in Triplet
// note: answer is a bare numeric in ng/mL

The examples below pair each entry with its known result.
- compound: "C[C@H]1COC2(CCN(c3nc(=O)c4cc(C(F)(F)F)cc([N+](=O)[O-])c4s3)CC2)O1"
  observed.measurement: 2100
- compound: "CC(C)=CCC/C(C)=C/CNCCNC1C2CC3CC(C2)CC1C3 (stereo not drawn)"
  observed.measurement: 900

Would you kindly look at the next entry?
Ask: // fetch Cmax given entry CC(=O)Nc1ccc(/C=N/NC(N)=S)cc1
Reply: 8500

====

AUC(0-t) listing for selected molecules.
# procedure.details: In vivo pharmacokinetics in infected mice (plasma, LC-MS/MS)
# Design: species or system BALB/c mice
# run.conditions: BALB/c, mouse, plasma, po, 150 mg/kg, Group 7 quartet PA824 50/BDQ 25/MXF 400/PZA 150 mg/kg oral; steady state, infected mice; read-out: AUC0-24 in Quartet
# Description: The drugs were formulated in 0.5% hydroxypropyl methyl cellulose (HPMC)–0.1% Tween 80 suspensions as 3- or 4-drug combinations. Formulations were prepared by weighing and adding each compound to the bottle, according to the design. Formulation vehicle was added, and the suspension was stirred overnight. Only uniform suspensions were used, while those that precipitated were abandoned. Formulations were prepared every week, and compound stability was estimated at the end of the week. […]
// note: answer is a bare numeric in ng·h/mL

The examples below pair each entry with its known result.
- molecule: "O=[N+]([O-])c1cn2c(n1)OC[C@@H](OCc1ccc(OC(F)(F)F)cc1)C2 [PA824]"
  AUC(0-t) / ng·h/mL: 92100
- molecule: "NC(=O)c1cnccn1 [Pyrazinamide]"
  AUC(0-t) / ng·h/mL: 144000
- molecule: "COc1nc2ccc(Br)cc2cc1[C@@H](c1ccccc1)[C@@](O)(CCN(C)C)c1cccc2ccccc12 [Bedaquiline]"
  AUC(0-t) / ng·h/mL: 24600

Ask: // fetch AUC(0-t) given entry COc1c(N2C[C@@H]3CCCN[C@@H]3C2)c(F)cc2c(=O)c(C(=O)O)cn(C3CC3)c12 [Moxifloxacin]
Reply: 76300

====

# procedure.details: In vivo pharmacokinetics in infected mice (plasma, LC-MS/MS)
# Set-up: species or system BALB/c mice
# run.conditions: BALB/c, mouse, plasma, po, 150 mg/kg, Group 8 quartet PA824 50/BDQ 25/EMB 100/PZA 150 mg/kg oral; steady state, infected mice; read-out: AUC0-24 in Quartet
readout.kind: AUC(0-t) (ng·h/mL)
// note: answer is a bare numeric in ng·h/mL

- molecule: "NC(=O)c1cnccn1 [Pyrazinamide]"
  observed.measurement: 127000

Ask: // fetch AUC(0-t) given entry COc1nc2ccc(Br)cc2cc1[C@@H](c1ccccc1)[C@@](O)(CCN(C)C)c1cccc2ccccc12 [Bedaquiline]
Reply: 50700

Ask: // fetch AUC(0-t) given entry O=[N+]([O-])c1cn2c(n1)OC[C@@H](OCc1ccc(OC(F)(F)F)cc1)C2 [PA824]
Reply: 66400

Ask: // fetch AUC(0-t) given entry CC[C@@H](CO)NCCN[C@@H](CC)CO [Ethambutol]
Reply: 5700
